Experiment: analgesic activity (technique of E. Siegmund et al.)
Type: in vivo
Conditions: po, read-out: ED50
ENDPOINT: ED50 (mg/kg)
Reply with just the number (in mg/kg).

In the examples that follow, each entry is paired with its recorded ED50.
N=C(Cc1ccccc1)N1C[C@@H]2C(=O)CCC(c3ccccc3)(c3ccccc3)[C@@H]2C1 (racemic) = 42
O=C1CCC(c2ccccc2)(c2ccccc2)[C@@H]2CN(C(Cc3ccccc3)=NCc3ccccc3)C[C@H]12 (racemic) = 19

Task: What measured ED50 goes with O=C1CCC(c2ccccc2)(c2ccccc2)[C@@H]2CN(C(Cc3ccccc3)=NCc3cccs3)C[C@H]12 (relative stereo) ?
Output: 29

Task: Quick one: ED50 of CN(C)c1ccccc1CC(=O)N1C[C@@H]2C(=O)CCC(c3ccccc3)(c3ccccc3)[C@@H]2C1 ?
Output: 38

Origin of measurements: patent US5102667A
